Source listed as ChEMBL document CHEMBL4312044.

assay: Metabolic stability in rat liver microsomes assessed as residue remaining at 10 uM incubated for 20 and 40 mins; type: ADME, Microsome; conditions: read-out: Stability
Reported Property: remaining at 40 min, 10 µM (%)
Kindly provide the numeric value in % only, without the unit symbol.

## Task Would you kindly share the measured remaining at 40 min, 10 µM for Cn1cc(-c2cc(NS(C)(=O)=O)ccc2Oc2ccc(Br)cc2)n2cncc2c1=O ?
## Result 54.2

----------
test: Metabolic stability in rat liver microsomes assessed as residue remaining at 10 uM incubated for 20 and 40 mins; type: ADME, Microsome; settings: read-out: Stability
Reported Property: remaining at 40 min, 10 µM (%)
Kindly provide the numeric value in % only, without the unit symbol.

## Task Would you kindly share the measured remaining at 40 min, 10 µM for CCS(=O)(=O)Nc1ccc(Oc2ccc(C(C)C)cc2)c(-c2cn(C)c(=O)c3cncn23)c1 ?
## Result 3.9

## Task Would you kindly share the measured remaining at 40 min, 10 µM for CCS(=O)(=O)Nc1ccc(Oc2cc(C)ccc2F)c(-c2cn(C)c(=O)c3cncn23)c1 ?
## Result 5.7

## Task Would you kindly share the measured remaining at 40 min, 10 µM for CCS(=O)(=O)Nc1ccc(Oc2ccc(F)cc2)c(-c2cn(C)c(=O)c3cncn23)c1 ?
## Result 76.2

## Task Would you kindly share the measured remaining at 40 min, 10 µM for CCS(=O)(=O)Nc1ccc(Oc2ccc(-c3c(C)noc3C)cc2)c(-c2cn(C)c(=O)c3cncn23)c1 ?
## Result 59.1

## Task Would you kindly share the measured remaining at 40 min, 10 µM for Cn1cc(-c2cc(NS(C)(=O)=O)ccc2Oc2cccc(Br)c2)n2cncc2c1=O ?
## Result 34.9

## Task Would you kindly share the measured remaining at 40 min, 10 µM for CCS(=O)(=O)Nc1ccc(Oc2ccc(F)cc2F)c(-c2cn(C)c(=O)c3[nH]ccc23)c1 ?
## Result 69

----------
target: Bromodomain-containing protein 4 (Homo sapiens); assay: Inhibition of BRD4 bromodomain2 (unknown origin) using peptide H4 as substrate incubated for 15 mins followed by substrate addition and measured after 1 hr by alphascreen assay
Reported Property: pIC50
Interpret pIC50 as the negative base-10 log of the concentration measured in mol/L.

Worked examples, 4 molecules total:
                                   molecule  reported_property  numeric_result
0  CCS(=O)(=O)Nc1ccc(Oc2ccc(F)cc2F)c(-c2cn(C)c(=O)c3cncn23)c1              pIC50            7.60
1  Cc1noc(C)c1-c1cccc(Oc2ccc(NS(C)(=O)=O)cc2-c2cn(C)c(=O)c3cncn23)c1              pIC50            6.75
2  CCS(=O)(=O)Nc1ccc(Oc2cc(F)ccc2C)c(-c2cn(C)c(=O)c3cncn23)c1              pIC50            7.47
3  CCS(=O)(=O)Nc1ccc(Oc2ccc(F)cc2)c(-c2cn(C)c(=O)c3cncn23)c1              pIC50            7.54

## Task Would you kindly share the measured pIC50 for Cn1cc(-c2cc(NS(C)(=O)=O)ccc2Oc2ccc(Br)cc2)n2cncc2c1=O ?
## Result 7.36

----------
target: Bromodomain-containing protein 4 (Homo sapiens); experiment: Inhibition of BRD4 bromodomain1 (unknown origin) using peptide H4 as substrate incubated for 15 mins followed by substrate addition and measured after 1 hr by alphascreen assay
Kindly apply the following: Yes if IC50 is less than 0.04 µM, No in every other case.

                         structure_notation  assigned_class
0  Cn1cc(-c2cc(NS(C)(=O)=O)ccc2Oc2ccc(Br)cc2)n2cncc2c1=O             Yes
1  CCS(=O)(=O)Nc1ccc(Oc2ccc(C(C)C)cc2)c(-c2cn(C)c(=O)c3cncn23)c1              No
2  Cn1cc(-c2cc(NS(C)(=O)=O)ccc2Oc2ccc(F)cc2)n2cncc2c1=O              No
3  CCS(=O)(=O)Nc1ccc(Oc2cc(F)ccc2C)c(-c2cn(C)c(=O)c3cncn23)c1             Yes
4  Cc1noc(C)c1-c1ccc(Oc2ccc(NS(C)(=O)=O)cc2-c2cn(C)c(=O)c3cncn23)cc1              No

## Task Is IC50 of CCS(=O)(=O)Nc1ccc(Oc2ccc(F)cc2F)c(-c2cn(C)c(=O)c3cncn23)c1 strictly below 0.04 µM?
## Result Yes

## Task Is IC50 of Cn1cc(-c2cc(NS(C)(=O)=O)ccc2Oc2cccc(Br)c2)n2cncc2c1=O strictly below 0.04 µM?
## Result No

## Task Is IC50 of Cc1noc(C)c1-c1cccc(Oc2ccc(NS(C)(=O)=O)cc2-c2cn(C)c(=O)c3cncn23)c1 strictly below 0.04 µM?
## Result No

----------
assay: Metabolic stability in rat liver microsomes assessed as residue remaining at 10 uM incubated for 20 and 40 mins; type: ADME, Microsome; details: read-out: Stability
Each item that follows carries a reported remaining at 40 min, 10 µM.
Kindly provide the numeric value in % only, without the unit symbol.

>>> print(df.to_string())
                         structure_notation  numeric_result
0  CCS(=O)(=O)Nc1ccc(Oc2ccc(F)cc2F)c(-c2cn(C)c(=O)c3cncn23)c1            17.6
1  Cn1cc(-c2cc(NS(C)(=O)=O)ccc2Oc2ccc(F)cc2)n2cncc2c1=O              78
2  CCS(=O)(=O)Nc1ccc(Oc2cc(F)c(F)c(F)c2)c(-c2cn(C)c(=O)c3cncn23)c1            54.3

// moving on: another record for remaining at 40 min, 10 µM
## Task Would you kindly share the measured remaining at 40 min, 10 µM for CCS(=O)(=O)Nc1ccc(Oc2cc(F)ccc2C)c(-c2cn(C)c(=O)c3cncn23)c1 ?
## Result 7.6

----------
target: Bromodomain-containing protein 4 (Homo sapiens); experiment: Inhibition of BRD4 bromodomain2 (unknown origin) using peptide H4 as substrate incubated for 15 mins followed by substrate addition and measured after 1 hr by alphascreen assay
Each item that follows carries a reported IC50.
Kindly provide the numeric value in nM only, without the unit symbol.

>>> df
                         structure_notation                              assay_target  numeric_result
0  CCS(=O)(=O)Nc1ccc(Oc2ccc(C(C)C)cc2)c(-c2cn(C)c(=O)c3cncn23)c1  Bromodomain-containing protein 4 (Homo sapiens)              36
1  CCS(=O)(=O)Nc1ccc(Oc2ccc(F)cc2F)c(-c2cn(C)c(=O)c3[nH]ccc23)c1  Bromodomain-containing protein 4 (Homo sapiens)              47
2  Cc1noc(C)c1-c1ccc(Oc2ccc(NS(C)(=O)=O)cc2-c2cn(C)c(=O)c3cncn23)cc1  Bromodomain-containing protein 4 (Homo sapiens)             153
3  CCS(=O)(=O)Nc1ccc(Oc2cc(C)ccc2F)c(-c2cn(C)c(=O)c3cncn23)c1  Bromodomain-containing protein 4 (Homo sapiens)              21
4  Cn1cc(-c2cc(NS(C)(=O)=O)ccc2Oc2cccc(Br)c2)n2cncc2c1=O  Bromodomain-containing protein 4 (Homo sapiens)              61

## Task Would you kindly share the measured IC50 for CCS(=O)(=O)Nc1ccc(Oc2cc(F)c(F)c(F)c2)c(-c2cn(C)c(=O)c3cncn23)c1 ?
## Result 140

## Task Would you kindly share the measured IC50 for CCS(=O)(=O)Nc1ccc(Oc2cccc(-c3c(C)noc3C)c2)c(-c2cn(C)c(=O)c3cncn23)c1 ?
## Result 81

## Task Would you kindly share the measured IC50 for CCS(=O)(=O)Nc1ccc(Oc2ccc(-c3c(C)noc3C)cc2)c(-c2cn(C)c(=O)c3cncn23)c1 ?
## Result 50
